Tested on: Caco-2
method: cell viability relative to DMSO; higher = less toxic
run-parameters: 72 h; 1 nM
endpoint: cell viability (%)
Expressed in %, but write only the number.

Before answering, review these 6 worked examples.
molecule	value-units	cell viability
Nc1ncnc2c1c(-c1cnc3[nH]ccc3c1)nn2C1CCCC1 [PP-121]	%	105
OCCN1CCN(CCCN2c3ccccc3C=Cc3ccccc32)CC1 [opipramol]	%	89.8
O=c1[nH]c(=O)n([C@H]2C[C@H](O)[C@@H](CO)O2)cc1/C=C/Br [brivudine]	%	97
CCc1[nH]c(=O)[nH]c1C(=O)c1ccncc1 [piroximone]	%	96.4
CC(=O)NS(=O)(=O)c1ccc(NC(=O)c2ccccc2C(=O)O)cc1 [phthalylsulfacetamide]	%	91.3
CN1CC2c3ccccc3Oc3ccc(Cl)cc3C2C1 (centres undefined) [asenapine]	%	94.9

query: Any idea what cell viability was measured for CCCN(CCC)C(=O)C1=Cc2ccc(-c3ccc(C(=O)N4CCCC4)cc3)cc2N=C(N)C1 [motolimod] ?
result: 102

query: Any idea what cell viability was measured for Cc1ccc(C(=O)Nc2ccc(CN3CCN(C)CC3)c(C(F)(F)F)c2)cc1C#Cc1cnc2[nH]ncc2c1 [GZD824] ?
result: 102

query: Any idea what cell viability was measured for CC(=O)c1ccc2c(c1)[C@H](NC(=O)c1ccc(F)c(Cl)c1)[C@H](O)C(C)(C)O2 [tonabersat] ?
result: 88.2
